test system: SW-620; experiment: Antiproliferative activity against human SW620 cells after 48 hrs by SRB assay; format: functional, cell-based; conditions: SW-620, 48 h
measured_property: IC50 (nM)

Consider the reported IC50 for these molecules:
- compound_structure_string: "O=C(CCCCCCN1C(=O)/C(=N\\O)c2cc(Cl)ccc21)NO"
  unit_tag: "nM"
  IC50: 650
- compound_structure_string: "CO/N=C1/C(=O)N(CCCCCCC(=O)NO)c2ccccc21"
  unit_tag: "nM"
  IC50: 730
- compound_structure_string: "CO/N=C1/C(=O)N(CCCCCCC(=O)NO)c2ccc(C)cc21"
  unit_tag: "nM"
  IC50: 1070

I = O=C(CCCCCCN1C(=O)/C(=N\O)c2cccc(Cl)c21)NO
II = CO/N=C1/C(=O)N(CCCCCCC(=O)NO)c2c(Cl)cccc21
III = CO/N=C1/C(=O)N(CCCCCCC(=O)NO)c2ccc(Br)cc21
## Input Kindly order the items shown according to IC50, from the highest value down. Put the labels in the requested order and write them down.
## Output III, I, II
(III: 2320 nM, I: 1050 nM, II: 260 nM)
